Reported Tmax is given for each of the following compounds.
- assay.explanation: in vivo
- particulars: C57BL/6, mouse, po, 500 mg/kg
Express it in min; write the number only.

compound	reading.unit	assay.value
O=C1CCC[C@@H]2[C@H]3CCCN4CCC[C@@H](CN12)[C@@H]34 [MATRINE]	min	24

Then there is this compound:
query: Query: Tmax; subject: Oc1ccc2c(c1)OCC1c3cc4c(cc3OC21)OCO4 (configuration not stated)
result: 36

----------
Reported AUC at 168 h is given for each of the following compounds.
- assay.explanation: in vivo
- particulars: C57BL/6, mouse, ip, 500 mg/kg
Express it in ng·h/mL; write the number only.

compound	AUC at 168 h / ng·h/mL
COc1c2ccccc2nc2occc12	23.2
O=C1CCC[C@@H]2[C@H]3CCCN4CCC[C@@H](CN12)[C@@H]34	1650

Then there is this compound:
query: Query: AUC at 168 h; subject: Oc1ccc2c(c1)OCC1c3cc4c(cc3OC21)OCO4 (stereo not drawn)
result: 47.4
